Assayed Target: CDK4/CycD3 (Homo sapiens)
Sequence (P11802 whole entry): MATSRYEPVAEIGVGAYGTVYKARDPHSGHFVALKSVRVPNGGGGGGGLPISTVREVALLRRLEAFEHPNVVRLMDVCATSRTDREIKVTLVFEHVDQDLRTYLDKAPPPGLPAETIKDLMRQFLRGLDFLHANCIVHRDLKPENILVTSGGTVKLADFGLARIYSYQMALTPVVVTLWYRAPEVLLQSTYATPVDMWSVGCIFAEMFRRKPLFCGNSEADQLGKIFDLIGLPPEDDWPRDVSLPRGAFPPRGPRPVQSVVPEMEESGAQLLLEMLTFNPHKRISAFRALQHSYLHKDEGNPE
Sequence (P30281 whole entry partner): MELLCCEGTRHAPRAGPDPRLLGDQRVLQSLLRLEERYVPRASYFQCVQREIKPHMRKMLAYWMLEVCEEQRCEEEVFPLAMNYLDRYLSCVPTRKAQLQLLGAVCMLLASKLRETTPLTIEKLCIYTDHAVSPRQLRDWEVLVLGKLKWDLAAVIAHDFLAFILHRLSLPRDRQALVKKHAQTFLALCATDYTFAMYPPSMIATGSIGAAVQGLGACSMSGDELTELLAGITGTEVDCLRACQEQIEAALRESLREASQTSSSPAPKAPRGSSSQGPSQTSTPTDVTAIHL
Protocol Description: In vitro IC50 profile for CDKs family kinase (33PanQinase radiometric assay)
Measurement Context: CDK7 selectivity profile in CDKs family
Property Label: IC50

Provide measured IC50 on CDK4/CycD3 (Homo sapiens) for CC(C)c1cnn2c(NCc3c(Cl)cccc3-n3ccc(C(C)(C)O)n3)nc(N3CCC(N)CC3)nc12 [Compound 210] please. > 10 µM

---

Assayed Target: CDK2/Cyclin A (Homo sapiens)
Construct: purchased Invitrogen PV6290
Protocol Description: Enzymatic assay for CDK2 (FRET based LANCE Ultra kinase assay)
Assay type: biochemical
Measurement Context: read-out: CDK2 enzymatic activity (IC50 range)
Procedure: Enzymatic Binding Assay Protocol for CDK1, CDK2, CDK5 and CDK7 Inhibition activity of the respective compound on CDK kinase under Km value of ATP was tested in FRET based The LANCE® Ultra kinase assay (Perkin Elmer), which uses a ULight™-labeled peptide substrate and an appropriate Europium-labeled anti-phospho-antibody. […] Data was analyzed using XL Fit software.
Please provide measured IC50 for the entries that follow.

Find the measured IC50 of CC(C)c1cnn2c(NCc3c(Cl)cccc3-c3ccn(C4CCNCC4)n3)nc(N3CCC(N)CC3)nc12 and report it. > 1000 nM

Recall and state the measured IC50 for CC(C)c1cnn2c(NCc3ccccc3-n3cc4cc(C#N)ccc4n3)nc(N3CCC(N)CC3)nc12 . 100 to 1000 nM

Quick one: give measured IC50 for CC(C)c1cnn2c(NCc3ccccc3N3CCCC3)nc(N3CCC(N)CC3)nc12 100 to 1000 nM

Provide IC50 value for the following molecule: CC(C)c1cnn2c(NCc3cccc4cccnc34)nc(N3CCC(N)CC3)nc12 100 to 1000 nM

Indicate its recorded IC50; the molecule in question is CC(C)c1cnn2c(NCc3ccccc3-c3cc4ccccc4[nH]3)nc(N3CCC(C(N)=O)CC3)nc12 > 1000 nM

// fetch IC50 given entry CNC(=O)c1ccccc1CNc1nc(N2CCC(N)CC2)nc2c(C(C)C)cnn12 100 to 1000 nM

Quote IC50 reported for CC(C)c1cnn2c(NCc3ccccc3N3CCc4ccccc43)nc(N3CCC(N)CC3)nc12 please. > 1000 nM

Answer with the recorded IC50 for the molecule listed here: CC(C)c1cnn2c(NCc3ccccc3-n3cccn3)nc(C(=O)NC3CCNC3)nc12 (racemic) > 1000 nM

---

What IC50 was measured for each of the following?
Assayed Target: CDK2/Cyclin A (Homo sapiens)
Construct: purchased Invitrogen PV6290
Protocol Description: Enzymatic assay for CDK2 (FRET based LANCE Ultra kinase assay)
Assay type: biochemical
Measurement Context: read-out: CDK2 enzymatic activity (IC50 range)

Kindly indicate its recorded IC50. Item: CC(C)c1cnn2c(NCc3ccccc3-n3cc(N4CCNCC4)cn3)nc(N3CCC(N)CC3)nc12 100 to 1000 nM

Supply reported IC50 belonging to this compound: CC(C)c1cnn2c(NCc3ccccc3-n3cc4cc(O)ccc4n3)nc(N3CCC(N)CC3)nc12 100 to 1000 nM

For the compound CC(C)c1cnn2c(NCc3ccccc3-c3cc4cc([N+](=O)[O-])ccc4[nH]3)nc(N3CCC(N)CC3)nc12 , report IC50. 100 to 1000 nM

For the compound CC(C)(C)c1cnn2c(NCc3c(F)cccc3-n3cccn3)nc(N3CCC(N)CC3)nc12 , give its reported IC50. > 1000 nM
